biological target: human Farnesoid X receptor ligand-binding domain/Gal4 DNA binding domain chimera (Homo sapiens (Human)); experiment: Cell-based assay of FXR activation (FXR-UAS-bla HEK 293T beta-lactamase reporter); conditions: cellular FXR beta-lactamase reporter assay, FXR-UAS-bla HEK 293T cells, 16 h; pEC50 = -log EC50
Sequence (Q96RI1 262-486, change not shown): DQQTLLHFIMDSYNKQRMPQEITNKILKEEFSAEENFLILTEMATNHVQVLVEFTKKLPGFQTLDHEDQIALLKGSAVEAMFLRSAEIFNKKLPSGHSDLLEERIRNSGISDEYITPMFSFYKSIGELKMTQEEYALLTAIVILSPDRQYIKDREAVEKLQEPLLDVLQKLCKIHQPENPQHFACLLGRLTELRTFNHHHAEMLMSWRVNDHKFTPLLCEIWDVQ
Sequence (P04386 1-147 partner): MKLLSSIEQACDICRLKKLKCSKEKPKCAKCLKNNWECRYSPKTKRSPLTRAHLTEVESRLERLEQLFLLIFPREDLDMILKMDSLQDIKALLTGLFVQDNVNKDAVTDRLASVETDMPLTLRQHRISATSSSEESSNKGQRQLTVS
Each record here notes measured log10 of EC50.
Give log10 of EC50, with EC50 taken in nM.

O=C(NS(=O)(=O)C1CC1)c1cc(F)c2nc(N3C[C@@H]4C[C@H]3C[C@H]4OCc3c(-c4c(Cl)cccc4Cl)noc3C3CC3)sc2c1: 0.40
O=C(O)c1cc(OC2CC2)c2nc(N3C(=O)[C@@H]4C[C@H]3C[C@H]4OCc3c(-c4c(Cl)cccc4Cl)noc3C3CC3)sc2c1: -0.50
Fc1cc(-c2nn[nH]n2)cc2sc(N3C[C@@H]4C[C@H]3C[C@H]4OCc3c(-c4c(Cl)cccc4Cl)noc3C3CC3)nc12: 1.40
COC(=O)c1cc(F)c2nc(N3C[C@@H]4C[C@H]3C[C@@H]4OCc3c(-c4c(Cl)cccc4Cl)noc3C3CC3)sc2c1: 3.80
O=C(O)c1cc(F)c2nc(N3C[C@@H]4C[C@H]3C[C@@H]4OCc3c(-c4c(Cl)cccc4Cl)noc3C3CC3)sc2c1: 3.20

With those in mind, consider the next compound.
Exercise: Item under review: "CC(=O)OCCS(=O)(=O)NC(=O)c1ccc(N2C[C@@H]3C[C@H]2C[C@H]3OCc2c(-c3c(Cl)cccc3Cl)noc2C2CC2)cc1" . Reported log10 of EC50?
Key: 0.00
